Test system: SF-295 CNS
protocol_details: NCI tumour cell line growth inhibition, 48 h
Listing: TGI of selected compounds

Please review the following examples before continuing.
compound	TGI
COc1cccc(-c2nc3ccccc3c(=O)[nH]2)c1OC	> 100 µM
CC(=O)c1cccc(Nc2nc3ccc(Cl)cc3c3[nH]c4ccccc4c23)c1	11.1 µM

input: Specify reported TGI for the compound shown: Cc1ccc(C(=O)Nc2ccc(CP(=O)(O)O)cc2CP(=O)(O)O)cc1NC(=O)c1cccc(NC(=O)Nc2cccc(C(=O)Nc3cc(C(=O)Nc4ccc(CP(=O)(O)O)cc4CP(=O)(O)O)ccc3C)c2)c1
output: > 100 µM

input: Specify reported TGI for the compound shown: CC1=NN(C(=O)CC(=O)Nc2ccc(C)cc2)C(=O)C1N=Nc1ccc(S(=O)(=O)c2ccc(N=NC3C(=O)N(C(=O)CC(=O)Nc4ccc(C)cc4)N=C3C)cc2)cc1 (stereo not drawn)
output: > 100 µM

input: Specify reported TGI for the compound shown: Cc1cc2[nH]c(=O)c3c4ccccc4cn3c2cc1C
output: 28.5 µM

input: Specify reported TGI for the compound shown: CCN(CC)c1c(-c2c(N(CC)CC)c(OC(C)=O)c3sccn3c2=O)c(=O)n2ccsc2c1OC(C)=O
output: > 100 µM

input: Specify reported TGI for the compound shown: CN1CCCOC(c2ccc([N+](=O)[O-])cc2)O1 (stereo not drawn)
output: > 100 µM

* * *

System: SF-295 CNS
protocol_details: NCI tumour cell line growth inhibition, 48 h
property: GI50

input: Specify reported GI50 for the molecule shown: CCCCCCCCCCCCOC1C(C(COC2OC(C3COC(C)(C)O3)C3OC(C)(C)OC23)NC(=O)NS(=O)(=O)c2ccccc2)OC2OC(C)(C)OC21 (centres undefined)
output: 3.52 µM

input: Specify reported GI50 for the molecule shown: COc1cc2c(cc1OCCCCCOc1ccc(-n3c(C)nc4ccccc4c3=O)cc1)N=C[C@@H]1CCCN1C2=O
output: 0.391 µM

input: Specify reported GI50 for the molecule shown: Cc1cc2[nH]c(=O)c3c4ccccc4cn3c2cc1C
output: 12.2 µM

input: Specify reported GI50 for the molecule shown: CNCCNc1c2c(c(NCCNC)c3[nH]ccc13)C(=O)c1ccccc1C2=O
output: 0.139 µM

input: Specify reported GI50 for the molecule shown: O=C1C=CC[C@H](/C=C/c2ccccc2)O1
output: 2.54 µM

input: Specify reported GI50 for the molecule shown: COc1cc(/C=N/NC(=O)c2cnn3c2NC(c2ccccc2)C3)ccc1Oc1ccccc1 (centres undefined)
output: 0.522 µM

input: Specify reported GI50 for the molecule shown: NCCN.NCCN.O=C([O-])CCl.O=C([O-])CCl.[Co+3].[O-][Cl+3]([O-])([O-])[O-]
output: > 100 µM

input: Specify reported GI50 for the molecule shown: Cc1cc(=O)[nH]c2cc3c(c4c(n3Cc3ccc(Cl)cc3Cl)CC(C)(C)CC4=O)c(O)c12
output: 16.4 µM

input: Specify reported GI50 for the molecule shown: Clc1ccc2nnnn2n1
output: 4.05 µM

* * *

System: MOLT-4 leukemia
protocol_details: NCI tumour cell line growth inhibition, 48 h
Listing: TGI of selected compounds

Please review the following examples before continuing.
compound	TGI
CC[C@@]1(OC(=O)CN)C(=O)OCc2c1cc1n(c2=O)Cc2cc3c(N)cccc3nc2-1	27.7 µM
CCOC(=O)/C(=C\c1ccc(C#N)cc1)C(C)=O	> 100 µM
CN1C(=O)C(CC(=O)O)NC1=S (stereo not given)	> 100 µM
Cc1ccc(C)n1-c1ccccc1C1C=CN(C(=O)OC(C)(C)C)C=C1	68.7 µM
Cc1ccc(C2=C(C#N)C(=O)N3CCN=C3S2)cc1	> 100 µM
COc1cc([C@H]2CC(=O)C[C@H](c3cc(OC)c(OC)c(OC)c3)C23C(=O)c2ccccc2C3=O)cc(OC)c1OC	> 100 µM

input: State measured TGI of the compound COc1cc(/C=C2\C(=O)N(c3ccccc3Cl)C(c3ccccc3)S2(=O)=O)cc(OC)c1OC (stereo not given) with MOLT-4 leukemia.
output: 36.4 µM

input: State measured TGI of the compound CC1(O)CC(c2nc(-c3ccc4ccc(-c5ccccc5)nc4c3)c3c(N)nccn23)C1 (stereo not given) with MOLT-4 leukemia.
output: > 80.1 µM

input: State measured TGI of the compound C/C(=N\NC(=O)c1ccncc1)c1ccccc1F with MOLT-4 leukemia.
output: > 10 µM

input: State measured TGI of the compound O=C(NNCc1ccco1)c1cc2ccccc2[nH]1 with MOLT-4 leukemia.
output: > 100 µM
